Target: Dimer of Gag-Pol polyprotein [489-587,Q496K] (Human immunodeficiency virus 1, UniProt P12497, Q496K)
Construct: 489-587
Experiment: Protease Inhibition Assay
Settings: pH 5.5; 30 °C
pIC50: −log10 of the molar value.
assay_metric: pIC50

- entry_smiles: "CCCc1nnc(C[C@H](C[C@H](O)CN2CCN(Cc3ccc(-c4ccc(Cl)cc4)o3)C[C@H]2C(=O)NCC(F)(F)F)C(=O)N[C@H]2c3ccccc3OC[C@H]2O)o1"
  assay_metric: "pIC50"
  result: "> 10.82"

Dear colleague, I am looking for the recorded pIC50 of the following compound: Cc1nnc(C[C@H](C[C@H](O)CN2CCN(Cc3ccc(-c4ccc(Cl)cc4)o3)C[C@H]2C(=O)NCC(F)(F)F)C(=O)N[C@H]2c3ccccc3OC[C@H]2O)o1
> 10.82

Dear colleague, I am looking for the recorded pIC50 of the following compound: CC(C)(c1ncc(-c2ccc(Cl)cc2)o1)N1CCN(C[C@@H](O)C[C@@H](Cc2nnco2)C(=O)N[C@H]2c3ccccc3OC[C@H]2O)[C@H](C(=O)NCC(F)(F)F)C1
> 10.82
